- subjectOfTest: Cytochrome P450 2C9 (Homo sapiens)
- Sequence (P11712 whole entry): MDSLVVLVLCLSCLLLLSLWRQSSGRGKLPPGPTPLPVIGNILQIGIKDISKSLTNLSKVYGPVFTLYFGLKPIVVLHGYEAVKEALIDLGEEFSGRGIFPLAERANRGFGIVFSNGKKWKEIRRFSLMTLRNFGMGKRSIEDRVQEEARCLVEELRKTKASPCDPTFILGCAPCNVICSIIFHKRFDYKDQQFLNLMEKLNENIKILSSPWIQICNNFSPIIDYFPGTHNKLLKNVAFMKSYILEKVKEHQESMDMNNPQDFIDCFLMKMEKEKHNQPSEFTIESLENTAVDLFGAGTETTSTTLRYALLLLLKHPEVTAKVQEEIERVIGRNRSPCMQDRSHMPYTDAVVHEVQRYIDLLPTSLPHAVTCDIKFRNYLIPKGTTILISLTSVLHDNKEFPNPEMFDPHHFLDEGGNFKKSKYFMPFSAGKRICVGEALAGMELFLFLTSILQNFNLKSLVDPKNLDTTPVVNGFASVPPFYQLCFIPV
- measurementNotes: Inhibition of CYP2C9
- Assay type: ADME
measuredMetric: IC50

For this molecule ( `O=C(Nc1c[nH]nc1-c1nc2ccc(CN3CCOCC3)cc2[nH]1)NC1CC1` ), measured IC50 is > 10 µM

* * *

- subjectOfTest: Cyclin-dependent kinase 1/cyclin B1 (Homo sapiens, UniProt P06493)
- Sequence (P06493 whole entry): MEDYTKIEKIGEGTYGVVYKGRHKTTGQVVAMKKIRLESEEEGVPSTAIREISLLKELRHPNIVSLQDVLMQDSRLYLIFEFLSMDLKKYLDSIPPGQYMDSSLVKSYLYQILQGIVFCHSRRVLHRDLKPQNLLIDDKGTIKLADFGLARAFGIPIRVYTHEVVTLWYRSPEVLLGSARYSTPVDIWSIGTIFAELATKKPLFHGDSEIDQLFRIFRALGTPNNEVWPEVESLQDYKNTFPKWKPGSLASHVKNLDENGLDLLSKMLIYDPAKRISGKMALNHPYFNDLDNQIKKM
- Sequence (P14635 whole entry, further chain): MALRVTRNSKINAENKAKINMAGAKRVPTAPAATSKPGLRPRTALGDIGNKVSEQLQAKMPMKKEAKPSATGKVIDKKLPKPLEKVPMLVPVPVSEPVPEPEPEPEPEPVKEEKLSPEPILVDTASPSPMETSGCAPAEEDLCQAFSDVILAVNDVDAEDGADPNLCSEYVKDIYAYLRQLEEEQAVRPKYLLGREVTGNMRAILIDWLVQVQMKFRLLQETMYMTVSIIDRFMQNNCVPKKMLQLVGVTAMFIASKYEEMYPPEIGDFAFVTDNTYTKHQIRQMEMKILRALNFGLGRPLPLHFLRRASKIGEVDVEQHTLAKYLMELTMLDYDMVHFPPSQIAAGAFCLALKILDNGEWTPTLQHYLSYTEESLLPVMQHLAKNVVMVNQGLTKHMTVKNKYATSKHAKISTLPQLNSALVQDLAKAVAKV
- measurementNotes: Inhibition of CDK1/Cyclin B
measuredMetric: pIC50
Give bare numbers, as −log10 of the molar value.

Please review the following examples before continuing.
recordsmiles=O=C(Nc1c[nH]nc1-c1nc2cc(CN3CCOCC3)ccc2[nH]1)NC1CCCCC1 measuredmetric=pIC50 experimentalvalue=5.54
recordsmiles=O=C(Nc1c[nH]nc1-c1nc2cc(CN3CCOCC3)ccc2[nH]1)NC1CCOCC1 measuredmetric=pIC50 experimentalvalue=4.77
recordsmiles=O=C(Nc1ccccc1F)Nc1c[nH]nc1-c1nc2cc(CN3CCOCC3)ccc2[nH]1 measuredmetric=pIC50 experimentalvalue=5.96

Could you report pIC50 for every entry in the following list?
1. CC(=O)Nc1c[nH]nc1-c1nc2ccccc2[nH]1
2. O=C(Nc1c[nH]nc1-c1nc2cc(CN3CCOCC3)ccc2[nH]1)Nc1c(F)cccc1F
3. O=C(Nc1c[nH]nc1-c1nc2ccccc2[nH]1)c1ccccc1
4. O=C(Nc1cccnc1)Nc1c[nH]nc1-c1nc2cc(CN3CCOCC3)ccc2[nH]1

1: 5.49; 2: 6.54; 3: 6.64; 4: 6.54

Provide pIC50 for all items below, preserving their order.
1. O=C(Nc1ccccc1)Nc1c[nH]nc1-c1nc2cc(CN3CCOCC3)ccc2[nH]1
2. O=C(Nc1c[nH]nc1-c1nc2cc(CN3CCOCC3)ccc2[nH]1)c1ccccc1

1. 5.26
2. 6.47

Consider `O=C(Nc1c[nH]nc1-c1nc2ccc(CN3CCOCC3)cc2[nH]1)c1ccc(F)cc1` . Its measured pIC50 is 5.82

* * *

- measurementNotes: Oral bioavailability in mouse
- Format: ADME, organism-based
- assayContext: in vivo
measuredMetric: bioavailability (%)
Give bare numbers, in %.

Field bioavailability (entry `O=C(Nc1c[nH]nc1-c1nc2ccc(CN3CCOCC3)cc2[nH]1)c1ccc(F)cc1` ) reads 26

* * *

- measurementNotes: AUC (0 to t) in BALB/c mouse bearing human HCT116 cells at 10 mg/kg, po
- Type: ADME, organism-based, HCT-116
- Parameters: dose 10 mg/kg, route oral
- assayContext: in vivo
measuredMetric: AUC(0-t) (µM·h)
Answers are plain numbers, in µM·h.

Looking up `O=C(Nc1c[nH]nc1-c1nc2ccc(CN3CCOCC3)cc2[nH]1)NC1CC1` , I see its AUC(0-t) listed as 0.91
